Target: T1, human IL-33 (R&D Systems, #3625-IL-010/CF) (human) (UniProt O95760)
T1 sequence (looked up): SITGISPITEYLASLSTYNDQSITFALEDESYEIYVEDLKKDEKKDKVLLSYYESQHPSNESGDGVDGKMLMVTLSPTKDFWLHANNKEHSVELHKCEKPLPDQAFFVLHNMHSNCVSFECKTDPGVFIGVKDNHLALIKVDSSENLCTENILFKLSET
Assay: SPR Biacore T200, 25 C
metric: kon (M⁻¹ s⁻¹)
Give bare numbers, in M⁻¹ s⁻¹.

Previously resolved entries follow.
binder: H4H9662P (antibody, from another filing, IgG4, V domains shown) VH: EVQLVESGGGLVQPGGSLRLSCAASGFTFSSYALTWVRQAPGKGLEWVSFISGSGGRPFYADSVKGRFTISRDNSKNMLYLQMNSLRAEDTAIYYCAKSLYTTSWYGGFDSWGQGTLVTVSS VL: DIQMTQSPSSVSASVGDRVTITCRASQGVVSWLAWYQQKPGKAPKLLIYAASSLQSGVPSRFSGSGSGTDFTLTISSLQPEDFATYYCQQSNSFPFTLGPGTKVDIK
kon (M⁻¹ s⁻¹): 871000
//
binder: H4H9675P (antibody, from another filing, IgG4, V domains shown) VH: EVQLVESGGNLEQPGGSLRLSCTASGFTFSRSAMNWVRRAPGKGLEWVSGISGSGGRTYYADSVKGRFTISRDNSKNTLYLQMNSLSAEDTAAYYCAKDSYTTSWYGGMDVWGHGTTVTVSS VL: DIQMTQSPSSVSASVGDRVTITCRASQGIFSWLAWYQQKPGKAPKLLIYAASSLQSGVPSRFSGSGSGTDFTLTISSLQPEDFAIYYCQQANSVPITFGQGTRLEIK
kon (M⁻¹ s⁻¹): 1.63e+06
//
binder: H4H9665P (antibody, from another filing, IgG4, V domains shown) VH: EVQLVESGGGLVQPGGSLRLSCAASGFTFSNYAMTWVRQAPGKGLEWVSTISGSGDNTYYADSVQGRFTISRGHSKNTLYLQMNSLRAEDTAVYYCAKPTYSRSWYGAFDFWGQGTMVTVSS VL: DIQMTQSPSSVSASVGDRVTITCRASQGISSWLAWYQQKPGKAPQLLIYAASRLQSGVPSRFWGSGSGTDFTLTISSLQPEDFATYYCQQANNFPFTFGPGTKVDIK
kon (M⁻¹ s⁻¹): 931000
//
binder: H4H9676P (antibody, from another filing, IgG4, V domains shown) VH: EVQLVESGGGLVQPGGSLRLSCSASGFTFSSYAMNWVRQAPGKGLEWVTAISGSGGGTYYADSVKGRFTISRDNSKNSLFLQLNSLRAEDTAVYYCAKQTYTSSWYGGFDIWGQGTMVTVSS VL: DIQMTQSPSSVSASVGDRVTITCRASQGFSSWLAWYQQIPGKAPKLLIYAASRLQSGVPSRFRGSGSGTDFTLTISSLQPEDFATYYCQQANSFPLTFGGGTKVEIK
kon (M⁻¹ s⁻¹): 1.79e+06

# input for lookup
Req: Form field: reported kon of H4H9671P (antibody, from another filing, IgG4, V domains shown) VH: EVQLVESGGGLVQPGGSLRLSCAASGFTLRSYFMTWVRQVPGKGLEGVSAISGISGGTYYTDSVKGRFTISRDNSKNTLFLQMNSLRAEDTAVYFCARTVYSSSYYGGFQHWGQGTLVTVSS VL: DIQMTQSPSSVSVSVGDRVTITCRASQGISSWLAWYQQKPGKAPKLLIYVASSLQSGVPSRFSGSGSGTDFTLTISSLQPEDFATYYCQQTNSFPLTFGGGTKVEIK
Resp: 1.31e+06
